# Test system: human fecal polymicrobial community
# PROTOCOL_DESCRIPTION: Human fecal polymicrobial incubation with d9-choline, TMA inhibition (EXAMPLE 3)
# Assay type: cell-based
# CONDITION_DESCRIPTION: human fecal slurry 0.2% (w/v), 50 μM d9-choline chloride, 20 hours at 37° C., anaerobic; read-out: TMA Inhibition (IC50, mol/L)
PARAMETER: pIC50
# pIC50: negative log10 of molar concentration; output just the value

Worked set:
C=CC[N+](C)(C)C1CC1 : 4.27
C#CC[N+](C)(C)C1CC1 : 6.37
C[N+](C)(CCO)C1CC1 : 3.87
COC(=O)C[N+](C)(C)C1CC1 : 3.87

Query: Respond only with pIC50 recorded for `C=C(C[N+](C)(C)C1CC1)C(=O)OC`
Response: 3.78
